Kindly supply the reported log10 of IC50 values for the records listed here.
tested on: A549; assay: Cytotoxicity against human A549 cells after 96 hrs by microplate reader analysis; assay type: functional, cell-based; settings: A549, 96 h
Hello, just confirming the data are log10 of IC50 with units of nM.

I am curious: what log10 of IC50 value has been reported for COc1c(Cl)c2c(c(OC)c1OC)-c1ccc(OC)c(=O)cc1[C@@H](NC(=O)CCN(C)C)CC2 ?
2.98

I am curious: what log10 of IC50 value has been reported for COc1cccc(C(=O)N[C@H]2CCc3c(Cl)c(OC)c(OC)c(OC)c3-c3ccc(OC)c(=O)cc32)c1 ?
0.43

I am curious: what log10 of IC50 value has been reported for COc1c(Cl)c2c(c(OC)c1OC)-c1ccc(OC)c(=O)cc1[C@@H](NC(=O)c1ccc(C#N)cc1)CC2 ?
1.08

I am curious: what log10 of IC50 value has been reported for CCC(O)(CC)C(=O)N[C@H]1CCc2c(Cl)c(OC)c(OC)c(OC)c2-c2ccc(OC)c(=O)cc21 ?
1.58

I am curious: what log10 of IC50 value has been reported for CCCCCCC(=O)N[C@H]1CCc2c(Cl)c(OC)c(OC)c(OC)c2-c2ccc(OC)c(=O)cc21 ?
1.70

I am curious: what log10 of IC50 value has been reported for COc1ccc(C(=O)N[C@H]2CCc3c(Cl)c(OC)c(OC)c(OC)c3-c3ccc(OC)c(=O)cc32)c(OC)c1 ?
1.93

I am curious: what log10 of IC50 value has been reported for COc1c(Cl)c2c(c(OC)c1OC)-c1ccc(OC)c(=O)cc1[C@@H](NC(=O)CC(C)C)CC2 ?
1.61

I am curious: what log10 of IC50 value has been reported for COc1c(Cl)c2c(c(OC)c1OC)-c1ccc(OC)c(=O)cc1[C@@H](NC(=O)c1ccccc1)CC2 ?
0.67

I am curious: what log10 of IC50 value has been reported for CCC(=O)N[C@H]1CCc2c(Cl)c(OC)c(OC)c(OC)c2-c2ccc(OC)c(=O)cc21 ?
0.89

I am curious: what log10 of IC50 value has been reported for COc1c(Cl)c2c(c(OC)c1OC)-c1ccc(OC)c(=O)cc1[C@@H](NC(=O)c1cc([N+](=O)[O-])cc([N+](=O)[O-])c1)CC2 ?
1.49

I am curious: what log10 of IC50 value has been reported for COc1c(Cl)c2c(c(OC)c1OC)-c1ccc(OC)c(=O)cc1[C@@H](NC(=O)CS)CC2 ?
2.60

---

Kindly supply the reported Stability values for the records listed here.
tested on: Liver; experiment: Metabolic stability in BALB/c mouse liver microsomes at 1 umol/l by LC-MS/MS analysis; type: ADME; conditions: 1 µM
Your answer is read as µL/min/mg, so omit the unit and give the number.

I am curious: what Stability value has been reported for COc1c(Cl)c2c(c(OC)c1OC)-c1ccc(OC)c(=O)cc1[C@@H](NC(=O)C(C)(C)O)CC2 ?
5

I am curious: what Stability value has been reported for COc1cc2c(c(OC)c1OC)-c1ccc(OC)c(=O)cc1[C@@H](NC(C)=O)CC2 ?
1

I am curious: what Stability value has been reported for COc1c(Cl)c2c(c(OC)c1OC)-c1ccc(OC)c(=O)cc1[C@@H](NC(=O)CO)CC2 ?
1

I am curious: what Stability value has been reported for COc1c(Cl)c2c(c(OC)c1OC)-c1ccc(OC)c(=O)cc1[C@@H](NC(=O)C(F)(F)F)CC2 ?
339

I am curious: what Stability value has been reported for COc1c(Cl)c2c(c(OC)c1OC)-c1ccc(OC)c(=O)cc1[C@@H](NC(=O)c1cccc(N(C)C)c1)CC2 ?
122

I am curious: what Stability value has been reported for CCC(=O)N[C@H]1CCc2c(Cl)c(OC)c(OC)c(OC)c2-c2ccc(OC)c(=O)cc21 ?
302

I am curious: what Stability value has been reported for COc1c(Cl)c2c(c(OC)c1OC)-c1ccc(OC)c(=O)cc1[C@@H](NC(C)=O)CC2 ?
28
